The reported numbers originate from the supplement of paper PMC9233669.

Test system: biotinyl-Phe-oxazolone
Assay: self-aminoacylation, catalytic enhancement (BFO) (fold over background); higher = more active; k-Seq, kA / k0A0; sequences stand for … in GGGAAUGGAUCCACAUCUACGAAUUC…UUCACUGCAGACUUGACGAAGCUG
This sample holds only a part of the variants without activity.
Classes by self-aminoacylation: lower level = under 2, middle level = from 2 up to 10, upper level = 10 and over

[
  {
    "Polymer Sequence": "AAUAACCUGGUCAUCGAGUGA [Fam2.1 aminoacylation ribozyme variant]",
    "Assigned Class": "middle level"
  },
  {
    "Polymer Sequence": "UUACUUCAAACAAUCGGUCUC [Fam1A.1 aminoacylation ribozyme variant]",
    "Assigned Class": "upper level"
  },
  {
    "Polymer Sequence": "AUUCACCUAGGUGAUUGGGUG [Fam2.2 aminoacylation ribozyme variant]",
    "Assigned Class": "upper level"
  },
  {
    "Polymer Sequence": "AAUCACCUAGGUCAUCGGGCG [Fam2.2 aminoacylation ribozyme variant]",
    "Assigned Class": "middle level"
  },
  {
    "Polymer Sequence": "CUACUUCAAACAAUCGGUAUC [Fam1A.1 aminoacylation ribozyme variant]",
    "Assigned Class": "middle level"
  },
  {
    "Polymer Sequence": "AAGUUUGCUAAUAGUCGCAAU [Fam3.1 aminoacylation ribozyme variant]",
    "Assigned Class": "lower level"
  },
  {
    "Polymer Sequence": "AAUACCCUGAUCAUCGAGUGA [Fam2.1 aminoacylation ribozyme variant]",
    "Assigned Class": "upper level"
  },
  {
    "Polymer Sequence": "AAGUUUGUUAAUCGUCGCAAG [Fam3.1 aminoacylation ribozyme variant]",
    "Assigned Class": "lower level"
  },
  {
    "Polymer Sequence": "AUUCACCUUGGUCGUCGGGUG [Fam2.2 aminoacylation ribozyme variant]",
    "Assigned Class": "upper level"
  },
  {
    "Polymer Sequence": "AGUCACGUAGGUCAUCGGGUG [Fam2.2 aminoacylation ribozyme variant]",
    "Assigned Class": "upper level"
  },
  {
    "Polymer Sequence": "GUCCACCUAGGUCAUCGGGUG [Fam2.2 aminoacylation ribozyme variant]",
    "Assigned Class": "upper level"
  },
  {
    "Polymer Sequence": "AUGUUUGCUAAUAGUGGCAAG [Fam3.1 aminoacylation ribozyme variant]",
    "Assigned Class": "lower level"
  },
  {
    "Polymer Sequence": "CCACACCGCAAGCAAUCGGUC [Fam1B.1 aminoacylation ribozyme variant]",
    "Assigned Class": "lower level"
  },
  {
    "Polymer Sequence": "AAUUCUGCUAAUAGUCGCAAG [Fam3.1 aminoacylation ribozyme variant]",
    "Assigned Class": "upper level"
  },
  {
    "Polymer Sequence": "AUUACAUUGGUCAUCGAGUGA [Fam2.1 aminoacylation ribozyme variant]",
    "Assigned Class": "upper level"
  },
  {
    "Polymer Sequence": "CCACACUUCAAGCAUUCAGUC [Fam1B.1 aminoacylation ribozyme variant]",
    "Assigned Class": "lower level"
  },
  {
    "Polymer Sequence": "CUACUUCAAGCUAUCGGUCUG [Fam1A.1 aminoacylation ribozyme variant]",
    "Assigned Class": "lower level"
  },
  {
    "Polymer Sequence": "AUUUACCUAGGUCAGCGGGUG [Fam2.2 aminoacylation ribozyme variant]",
    "Assigned Class": "upper level"
  },
  {
    "Polymer Sequence": "AUUCACCUAGGUAAUCGGGUA [Fam2.2 aminoacylation ribozyme variant]",
    "Assigned Class": "middle level"
  },
  {
    "Polymer Sequence": "AUUCACCUAAGGCAUCGGGUG [Fam2.2 aminoacylation ribozyme variant]",
    "Assigned Class": "upper level"
  },
  {
    "Polymer Sequence": "AUGCACCUAGGUCAGCGGGUG [Fam2.2 aminoacylation ribozyme variant]",
    "Assigned Class": "upper level"
  },
  {
    "Polymer Sequence": "AUUACCCUAGUCAUCGAGCGA [Fam2.1 aminoacylation ribozyme variant]",
    "Assigned Class": "lower level"
  },
  {
    "Polymer Sequence": "CCACUUCAAACAAUCGAUCUG [Fam1A.1 aminoacylation ribozyme variant]",
    "Assigned Class": "middle level"
  }
]

* * *

Tested on: biotinyl-Val-oxazolone
Assay: self-aminoacylation, catalytic enhancement (BVO) (fold over background); higher = more active; k-Seq, kA / k0A0; sequences stand for … in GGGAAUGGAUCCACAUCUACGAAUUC…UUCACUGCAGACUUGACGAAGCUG
This sample holds only a part of the variants without activity.
This section presents sequences with their documented self-aminoacylation values.

[
  {
    "Polymer Sequence": "AUUACCCUAGUUAUCGAGUGA [Fam2.1 aminoacylation ribozyme variant]",
    "self-aminoacylation": 3.83
  },
  {
    "Polymer Sequence": "CCGCAUUUCAAGCAAUCGGUC [Fam1B.1 aminoacylation ribozyme variant]",
    "self-aminoacylation": 2.48
  },
  {
    "Polymer Sequence": "AAGUUUGCUGCUAGUCGCAAG [Fam3.1 aminoacylation ribozyme variant]",
    "self-aminoacylation": 1.31
  },
  {
    "Polymer Sequence": "AUUACACUGGUUAUCGAGUGA [Fam2.1 aminoacylation ribozyme variant]",
    "self-aminoacylation": 3.72
  },
  {
    "Polymer Sequence": "AUUACUGUGGUCAUCGAGUGA [Fam2.1 aminoacylation ribozyme variant]",
    "self-aminoacylation": 2.56
  }
]

* * *

This section presents sequences with their documented self-aminoacylation values.
Test system: biotinyl-Leu-oxazolone
Assay: self-aminoacylation, catalytic enhancement (BLO) (fold over background); higher = more active; k-Seq, kA / k0A0; sequences stand for … in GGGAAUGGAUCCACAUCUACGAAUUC…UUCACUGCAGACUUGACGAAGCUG
Variants at the floor of the assay were thinned out.

[
  {
    "Polymer Sequence": "CGACACUUCAAGCAAUCUGUC [Fam1B.1 aminoacylation ribozyme variant]",
    "Assay Target": "biotinyl-Leu-oxazolone",
    "self-aminoacylation": 0.411
  },
  {
    "Polymer Sequence": "AUUCACCUAGGUCAGCCGGUG [Fam2.2 aminoacylation ribozyme variant]",
    "Assay Target": "biotinyl-Leu-oxazolone",
    "self-aminoacylation": 11.3
  },
  {
    "Polymer Sequence": "CCAAACUUCUAGCAAUCGGUC [Fam1B.1 aminoacylation ribozyme variant]",
    "Assay Target": "biotinyl-Leu-oxazolone",
    "self-aminoacylation": 0.733
  },
  {
    "Polymer Sequence": "CCACACUUGAAGCAAUCGGUA [Fam1B.1 aminoacylation ribozyme variant]",
    "Assay Target": "biotinyl-Leu-oxazolone",
    "self-aminoacylation": 1.13
  },
  {
    "Polymer Sequence": "AUUCACCUAGGUCCUCGGGUC [Fam2.2 aminoacylation ribozyme variant]",
    "Assay Target": "biotinyl-Leu-oxazolone",
    "self-aminoacylation": 1.16
  },
  {
    "Polymer Sequence": "GUACUUCAAACAAUCGCUCUG [Fam1A.1 aminoacylation ribozyme variant]",
    "Assay Target": "biotinyl-Leu-oxazolone",
    "self-aminoacylation": 1.88
  },
  {
    "Polymer Sequence": "AUUCACCUAGGCCAUCCGGUG [Fam2.2 aminoacylation ribozyme variant]",
    "Assay Target": "biotinyl-Leu-oxazolone",
    "self-aminoacylation": 5.83
  },
  {
    "Polymer Sequence": "AUUCACCUAUGCCAUCGGGUG [Fam2.2 aminoacylation ribozyme variant]",
    "Assay Target": "biotinyl-Leu-oxazolone",
    "self-aminoacylation": 3.21
  },
  {
    "Polymer Sequence": "AUUUACCUAGGUCAGCGGGUG [Fam2.2 aminoacylation ribozyme variant]",
    "Assay Target": "biotinyl-Leu-oxazolone",
    "self-aminoacylation": 4.23
  },
  {
    "Polymer Sequence": "CCACUCUUAAAGCAAUCGGUC [Fam1B.1 aminoacylation ribozyme variant]",
    "Assay Target": "biotinyl-Leu-oxazolone",
    "self-aminoacylation": 0.993
  },
  {
    "Polymer Sequence": "AUUACACUGGUCAUCGACUGA [Fam2.1 aminoacylation ribozyme variant]",
    "Assay Target": "biotinyl-Leu-oxazolone",
    "self-aminoacylation": 0.807
  },
  {
    "Polymer Sequence": "ACUACCCUGGUCAUUGAGUGA [Fam2.1 aminoacylation ribozyme variant]",
    "Assay Target": "biotinyl-Leu-oxazolone",
    "self-aminoacylation": 8.8
  },
  {
    "Polymer Sequence": "CAACUUCGAACAAUCGGUCUG [Fam1A.1 aminoacylation ribozyme variant]",
    "Assay Target": "biotinyl-Leu-oxazolone",
    "self-aminoacylation": 0.999
  },
  {
    "Polymer Sequence": "CUUACCCUGGUCAACGAGUGA [Fam2.1 aminoacylation ribozyme variant]",
    "Assay Target": "biotinyl-Leu-oxazolone",
    "self-aminoacylation": 5.08
  },
  {
    "Polymer Sequence": "CCACACUUCAAGCAAGCGGUA [Fam1B.1 aminoacylation ribozyme variant]",
    "Assay Target": "biotinyl-Leu-oxazolone",
    "self-aminoacylation": 1.13
  },
  {
    "Polymer Sequence": "CUACUUCAGACGAUCGGUCUG [Fam1A.1 aminoacylation ribozyme variant]",
    "Assay Target": "biotinyl-Leu-oxazolone",
    "self-aminoacylation": 0.954
  },
  {
    "Polymer Sequence": "CUACUUGUAACAAUCGGUCUG [Fam1A.1 aminoacylation ribozyme variant]",
    "Assay Target": "biotinyl-Leu-oxazolone",
    "self-aminoacylation": 0.678
  }
]
